B1: tRNA (parent)
chain: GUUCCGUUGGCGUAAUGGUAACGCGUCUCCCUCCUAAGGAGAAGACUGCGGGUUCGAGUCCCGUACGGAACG

variants of: B1; experiment: yeast fitness relative to wild type (ratio to wild type); higher = fitter; tRNA-Arg(CCU), competitive growth, 37 C, YPD
Variants at the floor of the assay were thinned out.
Label Not met if yeast fitness falls below 0.6; label Met in every other case.

mutant_code: C11A A36G A69C
label_value: Not met
--
mutant_code: G23U C60U A65G
label_value: Not met
--
mutant_code: C34A A42U U54A A57U
label_value: Not met
--
mutant_code: U8G A21G C27A U35A C62A A65C
label_value: Not met
--
mutant_code: U2A A21G G44C U59G
label_value: Not met
--
mutant_code: G39C A43C A45G
label_value: Not met
--
mutant_code: C4U G23C A40U A42G A45G G51C C61U G63A
label_value: Not met
--
mutant_code: G6C U16A G18C C22G G52C G68A
label_value: Not met
--
mutant_code: C5G C27U C34A G51A
label_value: Not met
--
mutant_code: A45G G67A
label_value: Met
--
mutant_code: G10A C24A C27A A45G
label_value: Not met
--
mutant_code: A37U G41C C46G
label_value: Not met
--
mutant_code: U16A U32C A37U C49A C60U G68C
label_value: Not met
--
mutant_code: A20U A65C
label_value: Met
--
mutant_code: C5G C29U A37U G38C
label_value: Not met
--
mutant_code: A14C C34G A43U C62A
label_value: Met
--
mutant_code: U7C C61G A65G
label_value: Not met
--
mutant_code: C5U C11G G48C C66U
label_value: Not met
--
mutant_code: C11A G48A
label_value: Met
--
mutant_code: C5U A14U C30U G39C
label_value: Not met
--
mutant_code: G18C G23C G48A
label_value: Not met
--
mutant_code: A14C C27U C46U A70G
label_value: Not met
--
mutant_code: C27U A42U C61G
label_value: Not met
--
mutant_code: C4U A21C C30A C31G U32C G41C C55U
label_value: Not met
--
mutant_code: C31U A40C C49U G52A
label_value: Not met
--
mutant_code: U26A C46A C62G
label_value: Met
--
mutant_code: C5U U19G A37G C66U A69U
label_value: Not met
--
mutant_code: C27G G48C C49G
label_value: Not met
--
mutant_code: U2A U19A A20C U26A A43G
label_value: Not met
--
mutant_code: U13C A14G A45G
label_value: Not met
--
mutant_code: A21C C27G U28A C29U C34U
label_value: Not met
--
mutant_code: G10A C30G A36C G58A
label_value: Not met
--
mutant_code: C27U G38C G67A
label_value: Not met
--
mutant_code: G9C C55A
label_value: Met
--
mutant_code: G12A A70G
label_value: Met
--
mutant_code: C4U U8A A36C C61U
label_value: Not met
--
mutant_code: C11U G52C
label_value: Met
--
mutant_code: C4U U8C A37U A45U C49U
label_value: Not met
--
mutant_code: A21C C61A G68A
label_value: Not met
--
mutant_code: U16A A20U C24G C31A C33G C61A G67C
label_value: Not met
--
mutant_code: U3A U35A
label_value: Met
--
mutant_code: C30G G58C G63C
label_value: Not met
--
mutant_code: A57C A65G
label_value: Not met
--
mutant_code: U3G G18A
label_value: Met
--
mutant_code: C4G G9C C46A U59A U64A
label_value: Not met
--
mutant_code: U7C U32C A45U G67A
label_value: Not met
--
mutant_code: U32G C33G C66U A69U
label_value: Not met
--
mutant_code: C5U C11G G51A
label_value: Not met
--
mutant_code: C4G C24A C34A U35G C49A C62G
label_value: Not met
--
mutant_code: U16G U32G C46U C49U
label_value: Not met
--
mutant_code: C4G C30A C62G
label_value: Not met
--
mutant_code: G18A C24G C27U C62U
label_value: Not met
--
mutant_code: C11U A36U C60A
label_value: Not met

Origin of values: the RNAGym collection of RNA variant scans (doi:10.1126/science.aae0568)
